- STUDY_SYSTEM: hCMV UL128 + UL130 + UL131A (co-expressed in HEK293T cells) (human cytomegalovirus, UniProt P16837 28-171; P16772 1-214; F5HET4 19-129)
- Sequence (P16837 28-171 limits assumed, one chain of several): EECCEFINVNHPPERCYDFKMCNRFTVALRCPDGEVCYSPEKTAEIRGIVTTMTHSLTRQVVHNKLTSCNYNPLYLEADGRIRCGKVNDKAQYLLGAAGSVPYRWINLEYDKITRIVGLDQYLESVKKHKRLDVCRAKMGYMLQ
- PROTOCOL_SUMMARY: cell-based or functional assay
QUANTITY_NAME: 90% Neutralization ARPE (µg/mL)

BINDER	DATA_VALUE
8J16 (antibody, V domains shown) VH: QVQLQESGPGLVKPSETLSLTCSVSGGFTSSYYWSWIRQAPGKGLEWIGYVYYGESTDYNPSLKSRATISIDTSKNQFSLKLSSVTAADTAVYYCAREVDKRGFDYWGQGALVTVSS VL: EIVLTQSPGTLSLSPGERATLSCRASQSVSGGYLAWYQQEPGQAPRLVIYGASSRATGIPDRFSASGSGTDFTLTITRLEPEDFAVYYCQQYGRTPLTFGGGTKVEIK	0.0008
